Assay: protein stability index of a GFP-peptide fusion (yeast GPS) (PSI 1-4); higher = more stable; sorted into four equal gates, so the index is relative within each strain
Settings: ubr1∆

Record sequence | protein stability index
LEACIVRIMKAKRNLPH [CDC53] | 1.21
EIKLLEISCKQWEISNM [CSI1] | 3.55
PETCLFVSYFGKQIKST [YML103C/NUP188] | 2.64
KLLSLLRSKTSAGRIES [SIR4] | 2.36
FLQHPDEEYPVKVKVSY [PRP8] | 2.63
ETQFKLSRPYKALKTNI [CDC53] | 2.45
IRRTFNIVNDFTPEEEA [SKP1] | 3.08
QWSRIVLQNVFKLVSTP [MED1] | 1.34
APLNFNPIIENNVDNKY [SSN2] | 2.88
ELVDMAGAGEANGTVVS [MTR3] | 3.05
WCTTCKSAENIIKMTIP [RET1] | 3.03
LPTVGFDFIKDNETPSK [YOR098C/NUP1] | 3.27
YFLDVKCPGCLNITTVF [RPS27A] | 2.85
YMVSRAIRDGVIEAKIN [RPN3] | 2.8
LIKQVPRLLGPQLSKAG [RPL1A] | 1.6
NIQGITKPAIRRLARRG [HHF1] | 3.35
PWYNNPVSCIIQNDEEY [PRP8] | 1.05
GYKMIPGAKPLQVGDVV [FAS1] | 1.79
TNSSILLGKILPREEHD [RRP6] | 1.58
RPFGVALLIAGHDADDG [PUP2] | 2.6
EISISFDVNNIDMHLIY [YDL116W/NUP84] | 2.25
QSSRVVSLSQLLFIVGQ [YCS4] | 1.4
KVGIWPYFDYIFNDILA [YJL039C/NUP192] | 1.43
INNNINIPQQQQMQPPN [GAL11] | 2.84
DHLIIEPEEEKSKREEE [ARP9] | 3.2
TAVATLLKELSKNAQFI [SMC3] | 2.66
ENHNKGKLWKDVKARIA [QCR9] | 2.83
SSQPLEPLSDTEEPDLA [DSN1] | 2.36
LTGEAEIEQPVTTFVFT [FAS1] | 2.4
LYVDSESTSSTEEVEAL [MTW1] | 3.24

* * *

Each record here notes measured protein stability index.
Experiment: protein stability index of a GFP-peptide fusion (yeast GPS) (PSI 1-4); higher = more stable; sorted into four equal gates, so the index is relative within each strain
Conditions: doa10∆

Record sequence | protein stability index
SQHKKILEELDFVRNEL [SMC3] | 3.35
DTYPYLTGEWSTKFDYP [FAS1] | 3.19
FNVVDVGVDQLSIELEG [YJL039C/NUP192] | 3.49
IVVVIEIITSLSMRFQR [SRB8] | 2.5
LINEILLKSNDPLLSLY [RGR1] | 2.04
LHIHGSSNPLGITGNLD [COB] | 2.92
IDYALTAVKQGVTSLGI [PRE8] | 2.27
LSRLSTASKIIVIDVDY [MED1] | 2.07
EVEVSTRDLFDLEKDRA [RPO31] | 3.07
IVPGTYIQERNPSQRPQ [RPS10B] | 3.01
SSQFVRLASEPGIISIT [YMR129W/POM152] | 2.04
PTIRSNAVLGLGDMAVC [YCS4] | 1.61
LAIDNMYILGMCVSKGN [YCG1] | 2.19
QQQQQQQQQQQQQGQIP [SNF5] | 2.73

* * *

Assay: protein stability index of a GFP-peptide fusion (yeast GPS) (PSI 1-4); higher = more stable; sorted into four equal gates, so the index is relative within each strain
Details: san1∆
Quantity kind: protein stability index

Record sequence | Quantity kind | Measurement
KRPRSRTLTAVHDKVLE [RPS7B] | protein stability index | 3.02
VVVVGTVTDDARIFEFP [RPL18A] | protein stability index | 2.6
FLGYKAGMTTIVRDLDR [RPL3] | protein stability index | 2.93
AYLLLNAAGNTPDATKI [RPP2A] | protein stability index | 2.17
SALIENNLFRIIAELSF [YJL039C/NUP192] | protein stability index | 2.04
MDIAERIAVLHQKTKTL [YGL172W/NUP49] | protein stability index | 1.81
TNYYLTTARNDLGVVFA [CSL4] | protein stability index | 2.51

* * *

Experiment: protein stability index of a GFP-peptide fusion (yeast GPS) (PSI 1-4); higher = more stable; sorted into four equal gates, so the index is relative within each strain
Details: pdr5∆
Label 1 when protein stability index is at or above 3; otherwise label -1.

Record sequence | Assigned category
SEKQNDEEAAGASTVMK [PRP8] | 1
TCVTCHWNLPGERIFNK [SIR2] | -1
QQQQAAALANANNNINS [SWI1] | -1
MALNKVLITDHIEKLEN [CDC53] | -1
DTTANNGKVQYFLRRQY [YJL039C/NUP192] | -1
IKKPKTYKYPSLKGVDP [RPL29] | 1

* * *

Each record here notes measured protein stability index.
Experiment: protein stability index of a GFP-peptide fusion (yeast GPS) (PSI 1-4); higher = more stable; sorted into four equal gates, so the index is relative within each strain
Conditions: doa10∆

Record sequence | protein stability index
ELAKEAKKSTTISKEST [ESC2] | 2.55
AIMNCADNSGARNLYII [RPL23A] | 2.33
LQVSEKDLFELERYYKE [ARP7] | 3.14
LIRLQMEKLDAKLNHLK [SWI3] | 3.06
SRIRVKIEGCISQVSSI [RPB7] | 1.6
QAYQFLNTFGSKICLSH [ITC1] | 2.06
PLSNEVFEISENNSDSN [SWI1] | 3
GREGIWSKTIKARTNLH [RPC34] | 1.46
PIPSSETKADGILLETI [RRP6] | 2.86
TMADAVRELGILCIFEG [SEC65] | 2.52
NQTIKEAKDAIIELENI [YIL149C/MLP2] | 3.02
TRVEGSGGGDSEVQRTM [RPT6] | 2.73
TAVLSTTARAKARAKKT [RPN2] | 3.31
KTCAKSVIQLCGGINDS [ECM29] | 3.43
LLTCYELEKKYHGNECE [SRB8] | 2.71
KLQSWDKVSSCFPQYVN [NNF1] | 1.42
GCENPADVFRRCLVAVI [SRP72] | 1.93
GCLNFVDENDEVLLAGF [RPS23A] | 1.3
TVSRAYGGSRCANCVKE [RPL34A] | 2.4
EIEQNTELLDEFIAAVN [RPN10] | 3.36
RVFRTRFQDGTSVVSIM [SMC2] | 2.07
SNDPDVNNTRRRVYNRV [BRN1] | 2.81
LADDLITKMLASDESLL [RPN2] | 1.94
TIRTRKVISNPLLARKQ [RPS24A] | 1.74
KNKENNTFTWNHSLQHQ [RPN4] | 2.37
VEHLLRDVRDQAAGGLS [RPN8] | 2.7
NKLLGNVTIAQGGVLPN [HTA1] | 1.82
SFKGSPNERKAKQAKIR [SNF2] | 3.36
SVRSLQKRIENGGNSVI [SRP68] | 1.7
DFDDFLKLGLVEYLDVN [RET1] | 3.01
TTDNNNSGNSNSNSNQQ [RPT1] | 3.3
MCEQALSALFTISSKPD [YCS4] | 2.22
KKHTKKFKRHHSDRYHR [RPL32] | 2.88
DEGGAKSLLLNTLNIDN [BRN1] | 3.19
LWNQWLKLNTSLPSKLT [SRP68] | 1.45
LAYRNYWTQYLGLFIHK [YJL039C/NUP192] | 1.94
VPSPTGEYVKEPEWVLE [RPO21] | 3
IVISLKNTMFEKSDALV [SMC1] | 2.42
FGVTKARWPAKSVKFVQ [RPL17A] | 2.63
AQNQGMFGAKPAGTSLF [YGL172W/NUP49] | 2.32
GNSKDDLLDMIQFGAKN [ISW2] | 3.14
PWCVKPEYLAMYGLTME [ITC1] | 2.27
RPEQLSNIIHDESDTIS [SNF6] | 1.82
LANWFLEVYASGNPNAT [YML031W/NDC1] | 2.03
VILRKISMLVTQLQRGG [CSI1] | 1.31
YVISLSYTDAQDKSKKI [YMR129W/POM152] | 2.67
RGFFDILSLATEGCIGL [MCD1] | 2.87
ENHNKGKLWKDVKARIA [QCR9] | 2.77
NQSSFNFGNNGAGGLNP [YOR098C/NUP1] | 3.15
TNSSILLGKILPREEHD [RRP6] | 1.55
LVSLFEDTNLAAIHAKR [HHT1] | 2.9
GLEVGPVVQVGIFIKIL [IRR1] | 2.38
SMNATMRNFSKQNQDSK [YDL088C/ASM4] | 2.86
AGASPMVNTQQPIVTGT [PRE4] | 2.67
FDYMNRYWVQKERSDGK [CDC53] | 2.26
KAKYNTPKYRLVVRFTN [RPL5] | 1.39
PSLLLQKDQDGRIPLHW [NAS6] | 3.28
IPTNPVDNENNKPAIKE [SWI3] | 2.95
KEPRLVIVTDPRLDAQA [RPS0B] | 3.41
LIKNGKKVTAFVPNDGC [RPS23A] | 3.03

Taken from the supplement of paper PMC9732359.
